ASSAYED TARGET: VMAT2 (Rattus norvegicus, UniProt Q01827)
Construct: conducted using isolated synaptic vesicle preparations; from tissue; host or cells: rat striatum, isolated synaptic vesicles
Sequence (Q01827 whole entry): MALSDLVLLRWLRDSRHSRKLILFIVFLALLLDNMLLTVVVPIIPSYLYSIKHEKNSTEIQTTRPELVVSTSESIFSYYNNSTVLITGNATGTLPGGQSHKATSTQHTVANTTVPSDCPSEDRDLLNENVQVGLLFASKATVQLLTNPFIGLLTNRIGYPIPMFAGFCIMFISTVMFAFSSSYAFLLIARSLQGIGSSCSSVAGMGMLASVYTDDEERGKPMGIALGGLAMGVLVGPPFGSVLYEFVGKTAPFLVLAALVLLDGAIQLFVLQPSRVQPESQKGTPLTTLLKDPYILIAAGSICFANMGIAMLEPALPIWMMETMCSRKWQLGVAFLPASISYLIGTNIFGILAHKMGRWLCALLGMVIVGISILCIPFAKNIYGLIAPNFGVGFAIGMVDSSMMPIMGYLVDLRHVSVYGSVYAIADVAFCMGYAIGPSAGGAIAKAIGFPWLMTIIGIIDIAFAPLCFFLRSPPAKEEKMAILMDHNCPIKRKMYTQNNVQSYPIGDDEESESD
ASSAY PROCEDURE: [3H]Dihydrotetrabenazine ([3H]DTBZ) binding assay, vesicular preparation
APPLIED CONDITIONS: rat brain synaptic vesicles, 3 nM [3H]DTBZ; read-out: Inhibition of [3H]DTBZ binding (Ki) VMAT2
Rule: measured Ki below 500 nM gets True; anything equal to or greater than 500 nM gets False.

These solved cases illustrate the format of a correct answer.
| MOLECULE | LABEL CLASS |
| --- | --- |
| COc1cccc(CCN2CCN(CCc3ccccc3)CC2)c1 [Compound 61] | False |
| COc1ccc(CCC2CCN(CCc3ccccc3OC)CC2)cc1 [Compound 21] | True |
| COc1cccc(CCN2CCC(CCc3cc(F)cc(F)c3)CC2)c1 [Compound 44] | True |
| COc1ccc(CCN2CCC(Cc3ccccc3)CC2)cc1OC [Compound 7] | False |
| Fc1cc(F)cc(CCC2CCN(CCc3ccccc3)CC2)c1 [Compound 42] | False |
| COc1ccc(CCN2CCN(CCc3ccccc3)CC2)cc1 [Compound 62] | False |

Now for a further molecule.
Qu. Input Fc1ccc(CCC2CCN(CCc3ccccc3Cl)CC2)c(F)c1 [Compound 34] ; condition: Ki strictly below 500 nM. Does it hold?
Ans. True
